For each entry below, report its RBA value.
Tested on: Estrogen receptor (Mus musculus)
Assay notes: Relative binding affinity calculated as the ratio of molar concentration of E2 and the triarylpropenones (TAP's) required to decrease [3H]E2 binding by 50%.
Number, no unit, nothing else.

**Q:** For the compound `O=C(/C(=C/c1ccccc1)c1ccccc1)c1ccc(OCCN2CCCC2)cc1` , what RBA is on record?
**A:** 0.025

**Q:** For the compound `O=C(/C(=C\c1ccccc1)c1ccc(O)cc1)c1ccc(O)cc1` , what RBA is on record?
**A:** 4.75

**Q:** For the compound `O=C(/C(=C/c1ccccc1)c1ccccc1)c1ccc(O)cc1` , what RBA is on record?
**A:** 2.02

**Q:** For the compound `CC(=O)Oc1ccc(/C(=C/c2ccccc2)C(=O)c2ccccc2)cc1` , what RBA is on record?
**A:** 0.24

**Q:** For the compound `O=C(/C(=C\c1ccc(O)cc1)c1ccc(O)cc1)c1ccccc1` , what RBA is on record?
**A:** 0.48

**Q:** For the compound `COc1ccc(/C(=C\c2ccccc2)C(=O)c2ccccc2)cc1` , what RBA is on record?
**A:** 0.02

**Q:** For the compound `O=C(/C(=C/c1ccc(O)cc1)c1ccccc1)c1ccccc1` , what RBA is on record?
**A:** 0.22

**Q:** For the compound `O=C(/C(=C/c1ccccc1)c1ccc(O)cc1)c1ccccc1` , what RBA is on record?
**A:** 0.28

----------
Test system: Estrogen receptor (Mus musculus)
Assay notes: Relative binding affinity calculated as the ratio of molar concentration of E2 and the triarylpropenones (TAP's) required to decrease [3H]E2 binding by 50%.
For each entry below, report its RBA value.

**Q:** For the compound `O=C(/C(=C\c1ccccc1)c1ccccc1)c1ccccc1` , what RBA is on record?
**A:** < 0.001

**Q:** For the compound `COc1ccc(/C=C(\C(=O)c2ccccc2)c2ccccc2)cc1` , what RBA is on record?
**A:** < 0.001

**Q:** For the compound `COc1ccc(C(=O)/C(=C/c2ccccc2)c2ccccc2)cc1` , what RBA is on record?
**A:** < 0.001
